Data origin: ChEMBL document CHEMBL5724914

Assay method text: The drug is tested on Z-025 corresponding to rabbit gut metagenome with ENA study accession number: PRJEB37062 and ENA sample accession number: ERS12561824 for biotransformation under anaerobic condition. The drug concentrations were measured over 9 timepoints collected between 0 and 24 hours of incubation by liquid-chromatography-coupled mass spectrometry (LC–MS); further: call rule not given here
Measurement conditions: 2 µM
Value kind: Bacterial Biotransformation

Below, 5 compounds whose answers are already recorded.
- Compound: "CC12CC3CC(C)(C1)CC(N)(C3)C2 [MEMANTINE]"
  Recorded value: "Compound NOT metabolized"
- Compound: "CC(C)C[C@H]1C(=O)N2CCC[C@H]2[C@]2(O)O[C@](NC(=O)[C@@H]3C=C4c5cccc6[nH]c(Br)c(c56)C[C@H]4N(C)C3)(C(C)C)C(=O)N12.CS(=O)(=O)O [BROMOCRIPTINE MESYLATE]"
  Recorded value: "Compound metabolized"
- Compound: "CN(C)CCC=C1c2ccccc2COc2ccccc21 [DOXEPIN]"
  Recorded value: "Compound NOT metabolized"
- Compound: "CN(C)C(=O)Oc1cc(OC(=O)N(C)C)cc(C(O)CNC(C)(C)C)c1 (stereo not drawn) [BAMBUTEROL]"
  Recorded value: "Compound metabolized"
- Compound: "COc1ccc(CN2CCNCC2)c(OC)c1OC.Cl.Cl [TRIMETAZIDINE DIHYDROCHLORIDE]"
  Recorded value: "Compound NOT metabolized"

Request: Look up Bacterial Biotransformation: C=C[C@H]1CN2CC[C@H]1C[C@H]2[C@H](O)c1ccnc2ccc(OC)cc12.C=C[C@H]1CN2CC[C@H]1C[C@H]2[C@H](O)c1ccnc2ccc(OC)cc12.O.O.O=S(=O)(O)O [QUININE SULFATE]
Result: Compound NOT metabolized

Request: Look up Bacterial Biotransformation: Br.COc1ccc2c(c1)[C@]13CCCC[C@@H]1[C@H](C2)N(C)CC3.O [DEXTROMETHORPHAN HYDROBROMIDE]
Result: Compound metabolized

Request: Look up Bacterial Biotransformation: Nc1nc(N)nc(-c2cc(Cl)ccc2Cl)n1.O=C(O)/C=C\C(=O)O [IRSOGLADINE MALEATE]
Result: Compound metabolized
